Each entry below carries its recorded TGI.
System: SN12C renal
Assay: NCI tumour cell line growth inhibition, 48 h
Where a SMILES comes first, the peptide text is derived from it. [ ]: non-standard residue; d: D form. 2Nal = N[CH](Cc1ccc2ccccc2c1)C(=O)O

**Query** Given `CCCCN=C1OCc2[nH][nH]c(=O)c21` , report its TGI on SN12C renal.
**Result** > 100 µM

**Query** Retrieve TGI on SN12C renal; query C=C1NC(=O)C(CC(C(=O)C(=O)Nc2c(C)cccc2C(C)(C)C)C(=O)c2ccc3ccccc3c2)C(=O)N1 (centres undefined)
**Result** > 100 µM

**Query** Find the measured TGI of `COc1cc2ncn(-c3cc(OCc4ccccc4C(F)(F)F)c(C(C)=O)s3)c2cc1OC` with SN12C renal as test system.
**Result** > 25 µM

**Query** Jot down TGI (SN12C renal) of `N#CCCN(CCC#N)c1ccc(C(N=Nc2ccc(Cl)cc2)=Nc2ccc(F)cc2)cc1` .
**Result** > 100 µM

**Query** Give the observed TGI of CC(C)C(NC(=O)C(CCCCN)NC(=O)C(Cc1c[nH]c2ccccc12)NC(=O)C(Cc1ccc(O)cc1)NC(=O)C(CS)NC(=O)C(N)Cc1ccc2ccccc2c1)C(=O)NC(CS)C(=O)NC(C(N)=O)C(C)O (centres undefined) (H-[2Nal]CYWKVCT-NH2; configuration not given here) for SN12C renal.
**Result** > 100 µM

**Query** State the measured TGI (SN12C renal) of CC(C)CCC(=O)[C@@H](C)[C@H]1[C@@H](OC2OCC(O)C(O)C2NS(C)(=O)=O)C[C@H]2[C@@H]3CC=C4C[C@@H](O)CC[C@]4(C)[C@H]3CC[C@]12C (some centres undefined)
**Result** > 40 µM

**Query** Fill in: TGI on SN12C renal, entry `O=C(Nc1nc(-c2ccc(Cl)cc2)nc2c1sc(=S)n2-c1ccccc1)C(F)(F)F`
**Result** 45.3 µM

**Query** Look up and report measured TGI (SN12C renal) for the following compound: C=C1C(=O)OC2CC3(C)CCCC(C)C3=CC12 (centres undefined)
**Result** 12.2 µM

----------
compounds and their reported TGI
Tested on: COLO 205 colon
Assay: NCI tumour cell line growth inhibition, 48 h

[[record]]
compound = "CN1CCN(Cc2ccc(NC(=O)c3cncc(C#Cc4cnn5ccccc45)c3)cc2C(F)(F)F)CC1"
measured_attribute = "TGI"
readout_value = "1.05 µM"

[[record]]
compound = "O=C(Nc1ccc2c(c1)OCO2)C(=O)c1c[nH]c2cc(F)ccc12"
measured_attribute = "TGI"
readout_value = "> 100 µM"

[[record]]
compound = "O=c1nc2sc3ccc4ccccc4c3n2[nH]c1=O"
measured_attribute = "TGI"
readout_value = "> 100 µM"


**Query** Given CC(=O)C1CCC2C3CC=C4CC(SC(=N)N)CCC4(C)C3CCC12C (configuration not stated) , respond with its TGI.
**Result** 2.94 µM

**Query** Provide one value: measured TGI of `COc1cccc2cc(C(=O)Nc3ccccn3)c(=N)oc12`
**Result** > 100 µM

**Query** // Input: O=C(O)CCC(NC(=O)c1ccc(CNc2nc3ccccc3nc2C(=O)O)cc1)C(=O)O (configuration not stated) . Output its TGI only.
**Result** > 100 µM

**Query** Give TGI for the following compound: C/C=C(/C)C(=O)OC1C=C(CO)C(=O)C(OC(=O)C(C)(O)C(C)Cl)C1C(C)C (configuration not stated)
**Result** 2.85 µM

**Query** Return value of TGI for input O=C1/C(=C/c2cccs2)NC(=S)N1CN1CCCC(CO)C1 (configuration not stated) , no commentary.
**Result** > 100 µM

----------
System: HOP-92 NSCLC
Assay: NCI tumour cell line growth inhibition, 48 h
// TGI lookup, one value per entry

Worked examples follow.
[[record]]
compound = "COc1cc(C23OCC(Cc4cc5c(cc42)OCO5)C3CO)cc(OC)c1OC (centres undefined)"
readout_value = "> 100 µM"

[[record]]
compound = "CC(=N)N(C)O"
readout_value = "> 100 µM"

[[record]]
compound = "N#CCCN(CCC#N)c1ccc(C(N=Nc2ccc(Cl)cc2)=Nc2ccc(F)cc2)cc1"
readout_value = "> 100 µM"

[[record]]
compound = "CN(C)c1ccc(C2ON=C(c3ccccc3)N2C23CC4CC(CC(C4)C2)C3)cc1 (centres undefined)"
readout_value = "> 10 µM"


**Query** Item CC1CC(C)C2=NOS3=C2C1=NO3 (centres undefined) : provide TGI
**Result** > 100 µM

**Query** Return the recorded TGI value; entry: `O=C1C(=O)N(c2cccc(C(F)(F)F)c2)C(=O)C(=O)C1c1nc2ccccc2s1`
**Result** > 100 µM

**Query** Retrieve TGI measured for COc1ccc(N2C(=O)/C(=C\c3cccc(Oc4ccccc4)c3)SC2c2ccccc2)cc1 (centres undefined) and print it.
**Result** > 100 µM

**Query** Kindly indicate its recorded TGI. Item: `[O-][n+]1c(-c2ccccc2)c2nc3ccccc3nc2c2ccccc21`
**Result** > 100 µM

**Query** Return TGI (reported value) for this compound: `Cc1cc(C)n(CN(Cn2nc(C)cc2C)c2ccccc2)n1`
**Result** > 100 µM

----------
In this section we review reported TGI values for a set of compounds.
System: LOX IMVI melanoma
Test: NCI tumour cell line growth inhibition, 48 h

**Query** Annotate the compound NC(=O)C(Nc1ccc(Cl)cc1)c1cc2cc(Br)ccc2nc1Cl (stereo not given) with its measured TGI.
**Result** > 50 µM

**Query** Using the record for `COc1cc2ncn(-c3cc(OCc4ccccc4C(F)(F)F)c(C(C)=O)s3)c2cc1OC` , state its measured TGI.
**Result** > 25 µM

**Query** Consider the compound `O=S(=O)(OI(O)CC(F)(F)F)C(F)(F)F` . State its measured TGI.
**Result** > 100 µM

----------
System: NCI-H460 lung
Experiment: NCI tumour cell line growth inhibition, 48 h
measured-attribute: TGI

Before answering, review these 5 worked examples.
[[record]]
molecule = "O=C(Nc1nc(C23CC4CC(CC(C4)C2)C3)cs1)c1cc2c(ccc3ccccc32)oc1=O"
readout_value = "> 100 µM"

[[record]]
molecule = "CN(C)c1ccc(C2ON=C(c3ccccc3)N2C23CC4CC(CC(C4)C2)C3)cc1 (centres undefined)"
readout_value = "> 10 µM"

[[record]]
molecule = "CCOC(=O)c1cc(-c2ccc(OC)c(OC)c2)[nH]c1N/N=C/c1c(Cl)cccc1Cl"
readout_value = "> 35.9 µM"

[[record]]
molecule = "CC(=O)Nc1ccc2cc3[nH]c4cc(NC(C)=O)ccc4c3nc2c1"
readout_value = "> 100 µM"

[[record]]
molecule = "CC(O[Si](c1ccccc1)(c1ccccc1)C(C)(C)C)[C@H](NC(=O)OC(C)(C)C)C(=O)O (some centres undefined)"
readout_value = "> 100 µM"


**Query** Tell us which TGI value is on record for OC1CCC[C@@H]1Sc1ccccc1 (some centres undefined)
**Result** > 100 µM

**Query** Provide only the value of recorded TGI for `CC(=O)O/N=C(Cl)/C(Cl)=N/OC(C)=O`
**Result** > 100 µM

**Query** Consider the molecule `C=CCn1cnc2c(=O)[nH]c(Nc3ccccc3)nc21` . State its measured TGI.
**Result** > 100 µM

**Query** Fill in TGI for record CC(=O)N/C(=C\c1ccc(/C=C(\NC(C)=O)C2=NC3C(=O)c4ccccc4C(=O)C3N2)cc1)C1=NC2C(=O)c3ccccc3C(=O)C2N1 (centres undefined)
**Result** > 100 µM

**Query** Answer with the recorded TGI of `NNC(=S)Nc1cccc(Cl)c1` only.
**Result** > 100 µM

**Query** Supply recorded TGI for `CC(C)CN(CC#N)CC(C)C` here.
**Result** > 100 µM

**Query** Quickly give me recorded TGI for CSc1ccc(C2=NN(C(C)=O)C(c3ccc(F)cc3)C2)cc1 (centres undefined)
**Result** 50.7 µM

**Query** Complete the entry with TGI for `O=C(Nc1nc(-c2ccc(Cl)cc2)nc2c1sc(=S)n2-c1ccccc1)C(F)(F)F`
**Result** 7.26 µM

**Query** Give TGI for the following molecule: C[C@]12CC/C(=N\OCCN3CCCCC3)C=C1CCC1C2CC[C@@]2(C)C1CC[C@]2(C)O (some centres undefined)
**Result** 17.5 µM

**Query** Identify measured TGI associated with O=C(c1ccccc1)c1c(CC(O)c2ccccc2)n(C(=O)c2ccccc2)c2ccccc12 (centres undefined)
**Result** > 100 µM

**Query** Tell us which TGI value is on record for C=C1CC(CN2CCC(=O)NC2=O)(c2ccccc2)OC1=O (centres undefined)
**Result** 38.2 µM

**Query** Report TGI for `N#Cc1c(N)nc(N2CCSCC2)c(C#N)c1-c1ccc(O)cc1`
**Result** 29.5 µM

**Query** Consider the molecule `Cn1c2c3c(F)c(F)ccc3nc-2cc2ccccc21` . State its measured TGI.
**Result** 12.6 µM

**Query** Give recorded TGI. `COc1ccc2c(c1)C(N)=C(Cc1ccncc1)C2=O`
**Result** > 100 µM
